# System: rice (ORYSA)
# experiment.notes: Test 32 greenhouse, simulated flooded rice culture
# Type: in vivo, Oryza sativa
# recorded.conditions: postemergence to flood; 21 DAA; Cpd 1 125 g a.i./ha
metric: ORYSA Obs (%)

>>> recorded_number("Nc1nc(C2CC2)nc(C(=O)O)c1Cl [Compound 1]")
27

----------
# Test system: sorghum (SORVU)
# experiment.notes: Test 28 greenhouse, postemergence
# Type: in vivo, Sorghum vulgare
# recorded.conditions: 26 DAA, Isoxadifen-ethyl 64 g a.i./ha
metric: SORVU Obs (%)

>>> recorded_number("CCOC(=O)C1=NOC(c2ccccc2)(c2ccccc2)C1 [Isoxadifen-ethyl]")
0

----------
# Test system: wheat (TRZAW)
# experiment.notes: Test 28 greenhouse, post- and preemergence
# Assay type: in vivo, Triticum aestivum
# recorded.conditions: postemergence; 26 DAA; Isoxadifen-ethyl 256 g a.i./ha
metric: TRZAW Obs (%)

>>> recorded_number("CCOC(=O)C1=NOC(c2ccccc2)(c2ccccc2)C1 [Isoxadifen-ethyl]")
0

----------
# System: barley (HORVX)
# experiment.notes: Test 30 growth chamber, postemergence
# Format: in vivo, Hordeum vulgare
# recorded.conditions: 17 DAA, Glycerol 14200 g a.i./ha
metric: HORVX Obs (%)

>>> recorded_number("OCC(O)CO [Glycerol]")
0

----------
# Test system: rice (ORYSA)
# experiment.notes: Test 32 greenhouse, simulated flooded rice culture
# Assay type: in vivo, Oryza sativa
# recorded.conditions: postemergence to flood; 21 DAA; Isoxadifen-ethyl 125 g a.i./ha
metric: ORYSA Obs (%)

>>> recorded_number("CCOC(=O)C1=NOC(c2ccccc2)(c2ccccc2)C1")
11

----------
# Test system: wheat (TRZAW)
# experiment.notes: Test 28 greenhouse, post- and preemergence
# Type: in vivo, Triticum aestivum
# recorded.conditions: postemergence; 26 DAA; Cpd 2 32 g a.i./ha
metric: TRZAW Obs (%)

>>> recorded_number("COC(=O)c1nc(C2CC2)nc(N)c1Cl")
80

----------
# Tested on: sorghum (SORVU)
# experiment.notes: Test 28 greenhouse, postemergence
# Format: in vivo, Sorghum vulgare
# recorded.conditions: 26 DAA, Isoxadifen-ethyl 128 g a.i./ha
metric: SORVU Obs (%)

>>> recorded_number("CCOC(=O)C1=NOC(c2ccccc2)(c2ccccc2)C1")
0

----------
# System: sorghum (SORVU)
# experiment.notes: Test 28 greenhouse, postemergence
# Type: in vivo, Sorghum vulgare
# recorded.conditions: 26 DAA, Cpd 2 64 g a.i./ha
# Protocol: A greenhouse test was conducted to evaluate the effects on the plant species corn (ZEAMD, Zea mays ssp. indentata), sorghum (SORVU, Sorghum vulgare L.), dry-seeded rice (ORYSA, Oryza sativa L.), wheat (TRZAW, Triticum aestivum L.), ivyleaf morningglory (IPOHE, Ipomoea hederacea (L.) JACQ.), and barnyardgrass (ECHCG, Echinochloa crus-galli (L.) P. BEAUV.), of mixtures of Compound 2 with isoxadifen-ethyl. […]
metric: SORVU Obs (%)

>>> recorded_number("COC(=O)c1nc(C2CC2)nc(N)c1Cl")
96

----------
# System: barley (HORVX)
# experiment.notes: Test 30 growth chamber, postemergence
# Assay type: in vivo, Hordeum vulgare
# recorded.conditions: 17 DAA, Cpd 2 1 g a.i./ha
metric: HORVX Obs (%)

>>> recorded_number("COC(=O)c1nc(C2CC2)nc(N)c1Cl")
25

----------
# Test system: wheat (TRZAW)
# experiment.notes: Test 28 greenhouse, post- and preemergence
# Assay type: in vivo, Triticum aestivum
# recorded.conditions: postemergence; 26 DAA; Cpd 2 64 g a.i./ha
metric: TRZAW Obs (%)

>>> recorded_number("COC(=O)c1nc(C2CC2)nc(N)c1Cl [Compound 2]")
90

----------
# Test system: wheat (TRZAW)
# experiment.notes: Test 30 growth chamber, postemergence
# Format: in vivo, Triticum aestivum
# recorded.conditions: 18 DAA, Glycerol 14200 g a.i./ha
metric: TRZAW Obs (%)

>>> recorded_number("OCC(O)CO")
0

----------
# Test system: wheat (TRZAW)
# experiment.notes: Test 30 growth chamber, postemergence
# Type: in vivo, Triticum aestivum
# recorded.conditions: 17 DAA, Glycerol 14200 g a.i./ha
metric: TRZAW Obs (%)

>>> recorded_number("OCC(O)CO")
0

----------
# Tested on: sorghum (SORVU)
# experiment.notes: Test 28 greenhouse, postemergence
# Assay type: in vivo, Sorghum vulgare
# recorded.conditions: 26 DAA, Cpd 2 32 g a.i./ha
metric: SORVU Obs (%)

>>> recorded_number("COC(=O)c1nc(C2CC2)nc(N)c1Cl")
73

----------
# Test system: barley (HORVX)
# experiment.notes: Test 30 growth chamber, postemergence
# Format: in vivo, Hordeum vulgare
# recorded.conditions: 17 DAA, Cpd 2 16 g a.i./ha
# Procedure: A growth chamber test was conducted to evaluate the effects on the plant species wheat (TRZAW, Triticum aestivum L.) and barley (HORVX, Hordeum vulgare L.) with mixtures of Compound 1 and Compound 2 with glycerol. Wheat and barley seeds were planted in a sandy loam soil having 0.9% organic matter and a pH of 6.3. […] Wheat and barley plants were treated postemergence at the two leaf growth stage for Compound 1 and at the three leaf growth stage for Compound 2. Each treatment was replicated one time. […]
metric: HORVX Obs (%)

>>> recorded_number("COC(=O)c1nc(C2CC2)nc(N)c1Cl")
35

----------
# Test system: wheat (TRZAW)
# experiment.notes: Test 28 greenhouse, post- and preemergence
# Assay type: in vivo, Triticum aestivum
# recorded.conditions: preemergence; 26 DAA; Cpd 2 32 g a.i./ha
metric: TRZAW Obs (%)

>>> recorded_number("COC(=O)c1nc(C2CC2)nc(N)c1Cl")
0

----------
# Tested on: corn (ZEAMD)
# experiment.notes: Test 31 field trial, corn hybrids at V4 growth stage
# Format: in vivo, Zea mays ssp. indentata
# recorded.conditions: postemergence; corn hybrid 34N43; 14 DAA; Cpd 2 30 g a.i./ha
metric: 34N43 Obs

>>> result("COC(=O)c1nc(C2CC2)nc(N)c1Cl [Compound 2]")
"15%"

----------
# Test system: rice (ORYSA)
# experiment.notes: Test 32 greenhouse, simulated flooded rice culture
# Assay type: in vivo, Oryza sativa
# recorded.conditions: postemergence to flood; 21 DAA; Isoxadifen-ethyl 62.5 g a.i./ha
metric: ORYSA Obs (%)

>>> recorded_number("CCOC(=O)C1=NOC(c2ccccc2)(c2ccccc2)C1 [Isoxadifen-ethyl]")
5

----------
# Test system: wheat (TRZAW)
# experiment.notes: Test 28 greenhouse, post- and preemergence
# Format: in vivo, Triticum aestivum
# recorded.conditions: preemergence; 26 DAA; Isoxadifen-ethyl 512 g a.i./ha
metric: TRZAW Obs (%)

>>> recorded_number("CCOC(=O)C1=NOC(c2ccccc2)(c2ccccc2)C1 [Isoxadifen-ethyl]")
0

----------
# Test system: wheat (TRZAW)
# experiment.notes: Test 28 greenhouse, post- and preemergence
# Assay type: in vivo, Triticum aestivum
# recorded.conditions: postemergence; 26 DAA; Isoxadifen-ethyl 1024 g a.i./ha
metric: TRZAW Obs (%)

>>> recorded_number("CCOC(=O)C1=NOC(c2ccccc2)(c2ccccc2)C1")
0

----------
# Test system: wheat (TRZAW)
# experiment.notes: Test 30 growth chamber, postemergence
# Type: in vivo, Triticum aestivum
# recorded.conditions: 17 DAA, Cpd 2 4 g a.i./ha
metric: TRZAW Obs (%)

>>> recorded_number("COC(=O)c1nc(C2CC2)nc(N)c1Cl")
20

----------
# Test system: rice (ORYSA)
# experiment.notes: Test 32 greenhouse, simulated flooded rice culture
# Assay type: in vivo, Oryza sativa
# recorded.conditions: postemergence to flood; 21 DAA; Isoxadifen-ethyl 31.25 g a.i./ha
metric: ORYSA Obs (%)

>>> recorded_number("CCOC(=O)C1=NOC(c2ccccc2)(c2ccccc2)C1")
2

----------
# Test system: wheat (TRZAW)
# experiment.notes: Test 28 greenhouse, post- and preemergence
# Assay type: in vivo, Triticum aestivum
# recorded.conditions: postemergence; 26 DAA; Isoxadifen-ethyl 512 g a.i./ha
metric: TRZAW Obs (%)

>>> recorded_number("CCOC(=O)C1=NOC(c2ccccc2)(c2ccccc2)C1")
0

----------
# System: wheat (TRZAW)
# experiment.notes: Test 28 greenhouse, post- and preemergence
# Format: in vivo, Triticum aestivum
# recorded.conditions: postemergence; 26 DAA; Isoxadifen-ethyl 64 g a.i./ha
# Method: A greenhouse test was conducted to evaluate the effects on the plant species corn (ZEAMD, Zea mays ssp. indentata), sorghum (SORVU, Sorghum vulgare L.), dry-seeded rice (ORYSA, Oryza sativa L.), wheat (TRZAW, Triticum aestivum L.), ivyleaf morningglory (IPOHE, Ipomoea hederacea (L.) JACQ.), and barnyardgrass (ECHCG, Echinochloa crus-galli (L.) P. BEAUV.), of mixtures of Compound 2 with isoxadifen-ethyl. […]
metric: TRZAW Obs (%)

>>> recorded_number("CCOC(=O)C1=NOC(c2ccccc2)(c2ccccc2)C1 [Isoxadifen-ethyl]")
0

----------
# Test system: wheat (TRZAW)
# experiment.notes: Test 28 greenhouse, post- and preemergence
# Type: in vivo, Triticum aestivum
# recorded.conditions: preemergence; 26 DAA; Isoxadifen-ethyl 64 g a.i./ha
metric: TRZAW Obs (%)

>>> recorded_number("CCOC(=O)C1=NOC(c2ccccc2)(c2ccccc2)C1")
0
